The measurements presented in this section are drawn from patent US20080200654A1.

target of assay: T1, A33 antigen (full-length human A33) (human, UniProt Q99795 22-319)
T1 construct: Class I cell membrane protein of the Ig superfamily; also called GPA33; human A33 antigen
T1 sequence: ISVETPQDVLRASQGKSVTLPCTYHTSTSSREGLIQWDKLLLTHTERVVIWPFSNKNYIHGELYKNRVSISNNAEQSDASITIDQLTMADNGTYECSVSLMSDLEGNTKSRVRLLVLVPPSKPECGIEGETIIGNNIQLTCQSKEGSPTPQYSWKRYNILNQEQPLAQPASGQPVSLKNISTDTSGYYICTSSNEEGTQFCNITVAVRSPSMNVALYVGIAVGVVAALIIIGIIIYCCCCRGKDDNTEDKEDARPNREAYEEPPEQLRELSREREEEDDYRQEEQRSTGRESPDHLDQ
method summary: FCM competition on COLO205 cells as in Example 10; competitor mouse anti-A33 antibody
Experimental: Whether or not each type of purified monoclonal antibody obtained in Example 8 recognizes an epitope similar to that of the mouse anti-A33 antibody was examined by a competition test using FCM. […] The resultant was washed twice with SB and then 50 μl of FITC fluorescence-labeled goat anti-human IgG F(ab′)₂ antibody (produced by IBL) was added, followed by 30 minutes of incubation on ice. […]
measurement label: Inhibition (%)
Your answer should be a plain number; it is taken to be in %.

Worked cases, Inhibition (%) given:
recN26 (antibody, V domains shown, also called recN26 antibody; N26 recombinant antibody) VH: QVQLVESGGGVVQPGRSLRLSCAASGFTFSHYGMHWVRQAPGKGLEWVALIWYDGSNKYYADSVKGRFTISRDNSKNTLYLQMNSLRAEDTAVYYCARDPLAAGTSYFDYWGQGTLVTVSS VL: EIVLTQSPDFQSVTPKEKVTITCRASQSIGSSLHWYQQKPDQSPKLLIKYASQSFSGVPSRFSGSGSGTDFTLTINSLEAEDAAAYYCHQSSSLPFTFGPGTKVDIK
95.3
recM165 (antibody, V domains shown, also called recM165 antibody; M165 recombinant antibody) VH: QVQLVESGGGVVQPGRSLRLSCAASGFTFSYYGMHWVRQAPGKGLEWVAVIWYDGSNKYYADSVKGRFTISRDNSKKTLYLQMNSLRAEDTAVYYCARDGHSSGWGDFQHWGQGTLVTVSS VL: EIVLTQSPATLSLSPGERATLSCRASQSVSSSLAWYQQKPGQAPRLLIYDASNRATGIPARFSGSGSGTDFTLTISSLEPEDFAIYYCQQRSNWPPTFGQGTKVEIK
93.4

Switching to the query record.
Task: Inhibition (%) for rec263 (antibody, V domains shown, also called rec263 antibody; rec263A1) VH: EVQLLESGGGLVQPGGSLRLSCAASGFTFSSYAMSWIRQAPGKGLEWVSAISASGGSTYYADSVKGRFTISRDNSKNTLYLQMNSLRAEDTAVYYCAKDRIVGATNYYYGMDVWGQGTTVTVSS VL: DIQMTQSPPSVSASVGDRVTITCRASQGISSWLAWYQHKPGKAPKLLIYGASSLQSGVPSRFSGSGSGTDFTLTISSLQPEDFATYYCQQANSFPITFGQGTRLEIK ?
Output: 15.3
